B1: CPEB3 Ribozyme (parent)
chain: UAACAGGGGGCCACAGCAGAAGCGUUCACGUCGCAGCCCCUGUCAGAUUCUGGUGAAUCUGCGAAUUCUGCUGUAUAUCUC

variants of: B1; experiment: self-cleavage, relative activity (ratio to wild type); higher = more cleavage; in vitro, sequencing
Give class 1 when the value for self-cleavage is at least 0.4. Give class 0 when it is less.

Mutant Label: U51A U60A
Label: class 1

Mutant Label: U51A U72C
Label: class 1

Mutant Label: A47U A65G
Label: class 0

Mutant Label: A28C G52U
Label: class 1

Mutant Label: C12U C40U
Label: class 1

Mutant Label: C23A A35U
Label: class 0

Mutant Label: U1A A3G
Label: class 1

Mutant Label: C12U U48G
Label: class 1

Mutant Label: A2U U74C
Label: class 1

Mutant Label: A45G U69A
Label: class 1

Mutant Label: C12A U41G
Label: class 0

Mutant Label: C39G U41A
Label: class 0

Mutant Label: G24C U66C
Label: class 0

Mutant Label: C23U A45C
Label: class 1

Mutant Label: C59G U76A
Label: class 1

Mutant Label: A65U U72G
Label: class 0

Mutant Label: A77U C79A
Label: class 1

Mutant Label: G8A U67G
Label: class 1

Mutant Label: A3G U48G
Label: class 1

Mutant Label: A15U A56G
Label: class 1
